experiment: GAPDH and PEG-3 promoter luciferase suppression – cell-based, luminescence, set 2, counter-screen for PEG-3 promoter inhibitor project, dose response (AID 651549); settings: HeLa PEG-Prom-luciferase or GAPDH-reporter, 6/24 h, GAPDH, run 1, 24 h
The source made the active and inactive calls.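 Rule for the calls: active = compounds blocking the PEG3 reporter with IC50 up to 10 µM at either incubation, yet sparing the GAPDH control reporter; inactive = the rest.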
Possible outcomes: true = active, false = inactive

{"compound": "CC(=O)OC1CC[C@]2(C#N)[C@H]3CC[C@]4(C)[C@H](C5C=CC(=O)O5)CCC4(O)C3CCC2(O)C1 (stereo not given in full)", "class": "false"}
{"compound": "CCC1(O)C(=O)OCc2c1cc1n(c2=O)Cc2cc3cc(O)ccc3nc2-1 (stereo not given)", "class": "true"}
{"compound": "Cc1nc2c(-c3ccc(Cl)cc3)c(C)[nH]n2c(=O)c1Cc1ccccc1", "class": "true"}
{"compound": "CCC(C)(C)c1ccc(Oc2ccc(N)cc2)cc1", "class": "true"}
{"compound": "Cc1ccc2nc(NC(=O)CSCC(=O)OCC(=O)c3ccc(Br)cc3)sc2c1", "class": "true"}

----------
assay: GAPDH and PEG-3 promoter luciferase suppression – cell-based, luminescence, set 2, counter-screen for PEG-3 promoter inhibitor project, dose response (AID 651549); conditions: HeLa PEG-Prom-luciferase or GAPDH-reporter, 6/24 h, GAPDH, run 1, 24 h
Calls of active or inactive are those of the source.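 The calls were made as follows: active = compounds blocking the PEG3 reporter with IC50 up to 10 µM at either incubation, yet sparing the GAPDH control reporter; inactive = the rest.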
Possible outcomes: active, inactive

{"compound": "Cc1cc(C)c(C)c(S(=O)(=O)N2CCN(C(=O)c3cc(=O)[nH]c4ccccc34)CC2)c1C", "class": "active"}
{"compound": "CS(=O)(=O)Nc1cccc(NC(=O)C2Cc3c(-c4ccccc4)ccnc3O2)c1 (stereo unspecified)", "class": "active"}
{"compound": "O=C(O)c1ccc(Nc2nc3c(s2)CCCC3)cc1", "class": "active"}
{"compound": "Cc1cccc(NC(=O)c2nc(S(=O)(=O)Cc3ccccc3)ncc2Cl)c1", "class": "active"}
{"compound": "CS(=O)(=O)c1ccc(-c2sc3ccccc3c2C#CCCO)cc1", "class": "inactive"}
{"compound": "COC(=O)c1ccc2nc(Nc3nc4ccc(F)cc4s3)sc2c1", "class": "active"}
{"compound": "Nc1ncn([C@@H]2O[C@H](CO)[C@@H](O)[C@H]2O)c(=O)n1", "class": "active"}
{"compound": "COCCn1c(C)cc(C(=O)COc2ccc(C)nc2[N+](=O)[O-])c1C", "class": "inactive"}
{"compound": "CC(C)(C)c1ccc(Oc2ccc(N)cc2)cc1", "class": "active"}
{"compound": "CC(C)(C)c1ccc(Cn2c(=O)cnc3ccccc32)cc1", "class": "active"}
{"compound": "CCOC(=O)c1ccc2nc(Nc3nc4ccc(F)cc4s3)sc2c1", "class": "inactive"}

----------
test: GAPDH and PEG-3 promoter luciferase suppression – cell-based, luminescence, set 2, counter-screen for PEG-3 promoter inhibitor project, dose response (AID 651549); conditions: HeLa PEG-Prom-luciferase or GAPDH-reporter, 6/24 h, GAPDH, run 1, 6 h
Activity calls are given as the source filed them.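 How the source made its calls: active means compounds blocking the PEG3 reporter with IC50 up to 10 µM at either incubation, yet sparing the GAPDH control reporter; inactive means the rest.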
Possible outcomes: active, inactive

{"compound": "Cc1c(CN2CCC(CO)(CCOc3ccccc3)CC2)[nH]c2c(Cl)cccc12", "class": "inactive"}
{"compound": "COc1ccc(Nc2ncnc3ccc(Br)cc23)c(OC)c1", "class": "active"}
{"compound": "Cc1cc(C)c(C)c(S(=O)(=O)N2CCN(C(=O)c3cc(=O)[nH]c4ccccc34)CC2)c1C", "class": "inactive"}
{"compound": "Nc1ncn([C@@H]2O[C@H](CO)[C@@H](O)[C@H]2O)c(=O)n1", "class": "active"}
{"compound": "O=C(O)c1ccc2nc(-c3ccccc3)sc2c1", "class": "active"}
{"compound": "Cc1cc(C)cc(NS(=O)(=O)c2ccc3c(c2)c(=O)n(C)c(=O)n3C)c1", "class": "inactive"}
{"compound": "COc1ccc2[nH]c(=O)c(CN(Cc3cccnc3)S(=O)(=O)c3ccccc3F)cc2c1", "class": "inactive"}
{"compound": "CN1CCC2(CC1)N=C(c1ccc(F)cc1)C(=S)N2C(=O)c1ccc(C(C)(C)C)cc1", "class": "inactive"}
{"compound": "Cc1oc(-c2ccc3c(c2)OCCO3)cc1C(=O)O", "class": "active"}
{"compound": "CC(=O)OC1(C)CC(C)C(=O)C(C(O)CC2CC(=O)NC(=O)C2)C1 (stereo not given)", "class": "active"}

Every entry's value here was drawn from PubChem BioAssay AID651549.
